# target.of.assay: SARS-CoV-2 S protein RBD RBD (Severe acute respiratory syndrome coronavirus 2), P0DTC2
# assay.context: modification not given
endpoint.label: Kd (µM)
Give bare numbers, in µM.

Prompt: Would you mind telling me what Kd value was observed for IEEQAKTFLDKFNHQAEDLFYK [h1-Mpa (21-42)] ?
Response: 1.07
